# TESTED ON: Cytochrome P450 3A4 (Homo sapiens)
# ASSAY METHOD TEXT: Cytochrome panel assay with activity outcomes
# RUN PARAMETERS: recombinant CYP, pro-luciferin dealkylation, luminescence, p450-cyp3a4; series mostly up to 57.1 µM
# Description: The P450 gene superfamily is involved in the metabolism and clearance of xenobiotics. This assay used various human CYP P450 isozymes to measure the dealkylation of various pro-luciferin substrates to luciferin. The luciferin is then measured by luminescence after the addition of a luciferase detection reagent. […] Inhibitors and some substrates limit the production of luciferin, and decrease measured luminescence. […] 8, Detection, 1 sec, ViewLux luminescent read […]
Screen size: about 16,000 compounds; about 5,100 (32%) were called active. About 25% were inconclusive and are not listed. The list shows a part of the results.
READOUT LABEL: AC50

Check out these entries, answers already filled in.
- MOLECULAR STRING: "COc1ccc(CNc2ncncc2-c2ccc(C(=O)N(C)C)cc2)c(OC)c1"
  RESULT: "501 nM (active)"
- MOLECULAR STRING: "COc1cc(Cn2cnnn2)ccc1O"
  RESULT: "inactive"
- MOLECULAR STRING: "COc1ccc(CNc2ncncc2-c2ccc(N(C)C)cc2)c(OC)c1"
  RESULT: "200 nM (active)"
- MOLECULAR STRING: "C[C@@H]1CCC[C@H](C)N1NC(=O)c1ccc(Cl)c(S(N)(=O)=O)c1"
  RESULT: "inactive"
- MOLECULAR STRING: "COc1cc(-c2nc3ccccn3c2/N=C/c2ccccc2)ccc1O"
  RESULT: "7080 nM (active)"

Provide Cytochrome P450 3A4 (Homo sapiens) AC50 reading for Cc1noc(C)c1-c1cncnc1Nc1ccccc1 .
3160 nM (active)
